Assay: Biodistribution of radiometal-DOTA-BBN conjugates in CF1 normal mice
Settings: 1 hour post-injection
Parameter Avg % ID, S. Intestine: see the listing below.
Form entry: value (% ID) — number only.

Task item: Output Avg % ID, S. Intestine of CSCC[C@H](NC(=O)[C@H](CC(C)C)NC(=O)[C@H](Cc1cnc[nH]1)NC(=O)CNC(=O)[C@@H](NC(=O)[C@H](C)NC(=O)[C@H](Cc1c[nH]c2ccccc12)NC(=O)[C@H](CCC(N)=O)NC(=O)CN1CCN(CC(=O)O)CCN(CC(=O)O)CCN(CC(=O)O)CC1)C(C)C)C(N)=O [111In-DOTA-0-BBN[7-14]NH2] [metal not drawn]
Reply: 0.25

Task item: For the molecule CSCC[C@H](NC(=O)[C@H](CC(C)C)NC(=O)[C@H](Cc1cnc[nH]1)NC(=O)CNC(=O)[C@@H](NC(=O)[C@H](C)NC(=O)[C@H](Cc1c[nH]c2ccccc12)NC(=O)[C@H](CCC(N)=O)NC(=O)CCCCCCCNC(=O)CN1CCN(CC(=O)O)CCN(CC(=O)O)CCN(CC(=O)O)CC1)C(C)C)C(N)=O [149Pm-DOTA-8-Aoc-BBN[7-14]NH2] , give its reported Avg % ID, S. Intestine.
Reply: 7.84

====

Assay: Biodistribution of radiometal-DOTA-BBN conjugates in CF1 normal mice
Details: 1 hour post-injection
Readout kind: Avg % ID, S. Intestine (% ID)
Could you give me the number in % ID? Just the number is fine.

CSCC[C@H](NC(=O)[C@H](CC(C)C)NC(=O)[C@H](Cc1c[nH]cn1)NC(=O)CNC(=O)[C@@H](NC(=O)[C@H](C)NC(=O)[C@H](Cc1c[nH]c2ccccc12)NC(=O)[C@H](CCC(N)=O)NC(=O)CCCCNC(=O)CN1CCN(CC(=O)O)CCN(CC(=O)O)CCN(CC(=O)O)CC1)C(C)C)C(N)=O [149Pm-DOTA-5-Ava-BBN[7-14]NH2] :: 7.70

Let us move to another entry and its Avg % ID, S. Intestine.
Task item: Entry CSCC[C@H](NC(=O)[C@H](CC(C)C)NC(=O)[C@H](Cc1c[nH]cn1)NC(=O)CNC(=O)[C@@H](NC(=O)[C@H](C)NC(=O)[C@H](Cc1c[nH]c2ccccc12)NC(=O)[C@H](CCC(N)=O)NC(=O)CCCCNC(=O)CN1CCN(CC(=O)O)CCN(CC(=O)O)CCN(CC(=O)O)CC1)C(C)C)C(N)=O [111In-DOTA-5-Ava-BBN[7-14]NH2] [metal not drawn] needs its Avg % ID, S. Intestine filled in; supply it.
Reply: 0.11

====

Assay: Biodistribution of radiometal-DOTA-BBN conjugates in CF1 normal mice
Conditions: 1 hour post-injection
Readout kind: Avg % ID/gm, Blood (% ID/gm)
The reply should contain only the number, in % ID/gm.

Task item: Specify measured Avg % ID/gm, Blood for CSCC[C@H](NC(=O)[C@H](CC(C)C)NC(=O)[C@H](Cc1cnc[nH]1)NC(=O)CNC(=O)[C@@H](NC(=O)[C@H](C)NC(=O)[C@H](Cc1c[nH]c2ccccc12)NC(=O)[C@H](CCC(N)=O)NC(=O)CCNC(=O)CN1CCN(CC(=O)O)CCN(CC(=O)O)CCN(CC(=O)O)CC1)C(C)C)C(N)=O [149Pm-DOTA-β-Ala-BBN[7-14]NH2] .
Reply: 0.21
